// data source = the supplement of paper PMC9897528

System: Scedosporium aurantiacum CBS 136046
Assay: growth inhibition relative to DMSO control (OD600); higher = more antifungal activity, active = 80 or more; extreme values may be limits of the assay
Details: 5 µM; 72 h; 37 °C

{"Molecular string": "Oc1cc(-c2cccc3ccccc23)[nH]n1", "growth inhibition (%)": 7.34}
{"Molecular string": "O=C(O)CSc1cc(NS(=O)(=O)c2cccc3cccnc23)c2ccccc2c1O", "growth inhibition (%)": 20.8}
{"Molecular string": "CC(C)(C)c1cc(CCC(=O)N2CCC2)cc(C(C)(C)C)c1O", "growth inhibition (%)": 11.9}
{"Molecular string": "CC[C@@]1(O)C(=O)OCc2c1cc1n(c2=O)Cc2cc3c(CN(C)C)c(O)ccc3nc2-1", "growth inhibition (%)": 21.5}
{"Molecular string": "O=C(/C=C/n1cnc(-c2cc(C(F)(F)F)cc(C(F)(F)F)c2)n1)NNc1cnccn1", "growth inhibition (%)": 26.3}
{"Molecular string": "OB1OCc2cc(Cl)ccc21", "growth inhibition (%)": 6.18}
{"Molecular string": "CN(C)[C@@H]1C(=O)C(C(N)=O)=C(O)[C@@]2(O)C(=O)C3=C(O)c4c(O)c(NC(=O)CN5CCCC5)cc(F)c4C[C@H]3C[C@@H]12", "growth inhibition (%)": 0}
{"Molecular string": "C=C(C)[C@@H]1CC[C@]2(C(=O)O)CC[C@]3(C)[C@H](CC[C@@H]4[C@@]5(C)CC[C@H](O)C(C)(C)[C@@H]5CC[C@]43C)[C@@H]12", "growth inhibition (%)": 1.06}

----------
Test system: Scedosporium aurantiacum CBS 136046;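 further: conidia screened in RPMI 1640 medium under 5% CO2, growth read by spectrophotometer, medium with 0.5% DMSO serving as the untreated reference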
Assay: growth inhibition relative to DMSO control (OD600); higher = more antifungal activity, active = 80 or more; extreme values may be limits of the assay
Conditions: 5 µM; 72 h; 37 °C

{"Molecular string": "O=C(Nc1ncc(Cc2cccc3ccccc23)s1)C1CCCCC1", "growth inhibition": "4.7% (inactive)"}
{"Molecular string": "Cc1cc(Nc2ccc(F)cc2)nc(SCc2nc3ccccc3[nH]2)n1", "growth inhibition": "0% (inactive)"}
{"Molecular string": "C[C@H](c1cccc2ccccc12)N(C)Cc1ccccc1", "growth inhibition": "14.5% (inactive)"}
{"Molecular string": "O=C(Cc1ccccc1F)Nc1nc2ccccc2[nH]1", "growth inhibition": "23.9% (inactive)"}
{"Molecular string": "C[C@@H](O)[C@H](N)C(=O)NS(=O)(=O)c1cccc(-c2ccc3[nH]ncc3c2)c1", "growth inhibition": "21% (inactive)"}
{"Molecular string": "FC(F)(F)Oc1ccc(Nc2ccc3cccc(Cl)c3n2)cc1", "growth inhibition": "25.3% (inactive)"}
{"Molecular string": "O=C(Nc1nnc(-c2ccc(Cl)cc2)o1)c1ccc(F)cc1", "growth inhibition": "48.5% (inactive)"}
{"Molecular string": "O=c1oc2ccc(Br)cc2cc1CSc1ncc[nH]1", "growth inhibition": "18.7% (inactive)"}
{"Molecular string": "O=S(=O)(Nc1ccc(-n2cccc2)cc1)c1ccc(Cl)c(Cl)c1", "growth inhibition": "41.8% (inactive)"}
{"Molecular string": "CCCCCCC1c2ccc(O)cc2Oc2cc(O)ccc21", "growth inhibition": "4.47% (inactive)"}
{"Molecular string": "C[C@H](Cn1cnc2c(N)ncnc21)OCP(=O)(O)O", "growth inhibition": "13.7% (inactive)"}
{"Molecular string": "COc1ccc(NC(=O)c2cc3ccccn3n2)cc1", "growth inhibition": "36.8% (inactive)"}
{"Molecular string": "C=CCc1cc(Cc2cnc(N)nc2N)cc(OC)c1O", "growth inhibition": "0% (inactive)"}
{"Molecular string": "C=CCN(C(=O)OCc1ccc([N+](=O)[O-])cc1)C1CCN(CC[C@](C)(CN(C)S(=O)(=O)c2ccccc2)c2ccccc2)CC1", "growth inhibition": "34.9% (inactive)"}
